Taken from paper PMC4336329.

- Target Of Assay: human ether-à-go-go-related gene (hERG) potassium channel (human, UniProt Q12809)
- Sequence (Q12809 whole entry, looked up): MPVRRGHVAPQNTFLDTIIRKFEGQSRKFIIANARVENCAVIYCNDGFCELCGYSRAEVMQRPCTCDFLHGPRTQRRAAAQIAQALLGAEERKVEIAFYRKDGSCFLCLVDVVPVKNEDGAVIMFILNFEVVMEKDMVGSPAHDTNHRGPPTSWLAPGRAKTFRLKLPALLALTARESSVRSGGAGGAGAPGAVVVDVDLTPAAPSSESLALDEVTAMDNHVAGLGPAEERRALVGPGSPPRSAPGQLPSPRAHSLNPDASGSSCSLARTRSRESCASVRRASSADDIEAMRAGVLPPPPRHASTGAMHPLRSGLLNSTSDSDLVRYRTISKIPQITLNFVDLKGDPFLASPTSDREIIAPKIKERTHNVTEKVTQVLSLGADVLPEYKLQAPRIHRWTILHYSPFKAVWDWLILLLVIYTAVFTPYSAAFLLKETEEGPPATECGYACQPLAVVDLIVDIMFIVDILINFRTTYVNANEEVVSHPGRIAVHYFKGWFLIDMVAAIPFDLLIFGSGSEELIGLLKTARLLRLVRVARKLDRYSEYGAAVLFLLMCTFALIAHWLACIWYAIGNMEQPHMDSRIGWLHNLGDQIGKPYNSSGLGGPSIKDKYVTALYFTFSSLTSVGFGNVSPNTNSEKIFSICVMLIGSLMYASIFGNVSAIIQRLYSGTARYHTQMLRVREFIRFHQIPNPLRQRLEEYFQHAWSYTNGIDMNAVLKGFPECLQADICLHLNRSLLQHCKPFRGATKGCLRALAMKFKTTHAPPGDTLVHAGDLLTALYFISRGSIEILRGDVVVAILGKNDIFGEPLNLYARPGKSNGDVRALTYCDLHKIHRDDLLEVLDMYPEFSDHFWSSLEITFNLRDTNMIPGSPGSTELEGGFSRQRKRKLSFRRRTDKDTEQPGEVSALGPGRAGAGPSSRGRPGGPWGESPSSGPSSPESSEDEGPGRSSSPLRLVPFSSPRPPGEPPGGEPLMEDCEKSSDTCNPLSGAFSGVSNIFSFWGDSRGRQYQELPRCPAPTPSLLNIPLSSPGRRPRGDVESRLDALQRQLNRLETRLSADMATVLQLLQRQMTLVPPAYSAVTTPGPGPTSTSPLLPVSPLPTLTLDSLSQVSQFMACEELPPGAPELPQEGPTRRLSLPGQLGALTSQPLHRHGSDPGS
- Assay Remarks: primary screen, population patch clamp on CHO cells stably expressing hERG; higher = less effect of the substance
Hit rate of the full screen: of about 310,000 compounds, about 14,000 (4.5%) showed an effect of 50% or more. The effect is printed as a negative number. For the sample, strong results were picked, then their nearest neighbours and some compounds at random.
The following compounds are shown together with reported hERG current change (%, negative = inhibition) at 10uM values.
Just the number in %, nothing appended.

Compound: CCc1cc2cc(C(=O)N3CCN(Cc4ccccc4)CC3)sc2s1
Target Of Assay: human ether-à-go-go-related gene (hERG) potassium channel (human, UniProt Q12809)
Meas Value: -36.7
//
Compound: COc1cc(C(=O)NCc2cccnc2)ccc1OCC(=O)Nc1cccc(C(F)(F)F)c1
Target Of Assay: human ether-à-go-go-related gene (hERG) potassium channel (human, UniProt Q12809)
Meas Value: 3.13
//
Compound: O=C(COc1ccc(Cl)cc1)Nc1ccc(C(=O)NCc2cccnc2)cc1
Target Of Assay: human ether-à-go-go-related gene (hERG) potassium channel (human, UniProt Q12809);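 note: peak tail current of the secondary pulse compared with the same well before compound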
Meas Value: -36.8
//
Compound: Cc1cccc(OCC(=O)Nc2ccc(C(=O)NCc3cccnc3)cc2)c1
Target Of Assay: human ether-à-go-go-related gene (hERG) potassium channel (human, UniProt Q12809);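 note: peak tail current of the secondary pulse compared with the same well before compound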
Meas Value: -0.608
//
Compound: CC(C)c1onc(C(=O)N2CCN(c3ccccc3)CC2)c1[N+](=O)[O-]
Target Of Assay: human ether-à-go-go-related gene (hERG) potassium channel (human, UniProt Q12809);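 note: peak tail current of the secondary pulse compared with the same well before compound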
Meas Value: 14.1

Now turn to the next compound.
Task: Fill in the recorded hERG current change (%, negative = inhibition) at 10uM for this compound, with human ether-à-go-go-related gene (hERG) potassium channel (human, UniProt Q12809) as test system: `O=C(c1cccnc1)N1CCN(S(=O)(=O)c2ccc(S(=O)(=O)N3CCCC3)cc2)CC1`
Output: 9.65

====

- Target Of Assay: human ether-à-go-go-related gene (hERG) potassium channel (human, UniProt Q12809);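 note: peak tail current of the secondary pulse compared with the same well before compound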
- Assay Remarks: primary screen, population patch clamp on CHO cells stably expressing hERG; higher = less effect of the substance
- Description: Briefly, Chinese hamster ovary (CHO) cells stably expressing the hERG channel were dislodged from tissue culture flasks and dispensed into PPC plates. […] During the recording, background leak currents were estimated by a 100 ms step to -80 mV from an initial holding potential of -70 mV and subtracted from the subsequent current measurement. The campaign was conducted in two phases using slight differences in recording protocol. […]
Out of some 310,000 compounds screened, about 14,000 (4.5%) showed an effect of 50% or more. Effects have a minus sign here. This is one part of a sample in which strong results are shown more often than they occur.
The following compounds are shown together with reported hERG current change (%, negative = inhibition) at 10uM values.
Just the number in %, nothing appended.

Compound: COc1ccc(-c2cc(=O)oc3c(C)c(OCC(=O)NCCCn4ccnc4)ccc23)cc1
Meas Value: -63.8
//
Compound: CCCc1cc(=O)oc2c(C)c(OCC(=O)Nc3cccnc3)ccc12
Meas Value: -63.6
//
Compound: CC(Oc1ccc2c(-c3ccccc3)cc(=O)oc2c1)C(=O)NCCCn1ccnc1 (centres unmarked)
Meas Value: -52.5
//
Compound: Cc1c(C)c2ccc(OCC(=O)Nc3cccnc3)c(C)c2oc1=O
Meas Value: 3.99

Now turn to the next compound.
Task: Look at this compound and give its reported hERG current change (%, negative = inhibition) at 10uM. `Cc1cc(=O)oc2c(C)c(OCC(=O)Nc3cccnc3)ccc12`
Output: -25.3
